Data provenance: patent US20240059712A1

Target: KRAS^G12D protein (Homo sapiens, UniProt P01116, G12D)
Construct: host or cells: Aspc-1 (AsPC-1) cells
Sequence (P01116 1-188 isoform P01116-2 G12D): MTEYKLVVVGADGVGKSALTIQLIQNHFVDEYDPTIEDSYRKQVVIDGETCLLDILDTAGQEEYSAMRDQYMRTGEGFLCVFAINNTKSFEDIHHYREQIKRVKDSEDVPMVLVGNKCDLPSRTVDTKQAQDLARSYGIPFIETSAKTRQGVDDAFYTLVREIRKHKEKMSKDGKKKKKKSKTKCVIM
Test: Protein degradation study (western blot) in Aspc-1 cells
Type: cell-based
Conditions: ASPC1, 24 h, Aspc-1 cells treated with 0.005 μM compound, 24 hours; read-out: Rate of degradation
Method: Aspc-1 (Cobioer, CBP60546) cells in exponential growth phase were inoculated on a 6-well cell culture plate (Corning, 3516) at density of 1E6/well; and cells in the plate were cultured in 37° C. incubator containing 5%-carbon dioxide. […] The supernatant was transferred into a new 1.5-mL centrifuge tube, and protein concentration was measured with BCA protein detection kit (Thermo Fisher, 23225). G12D protein level was assessed by western blot. […]
Let's look at some compounds and their measured inhibition at 0.005 µM.

# Compound, inhibition at 0.005 µM
records = [
    ("Nc1cc(Cl)c(C(F)(F)F)c(-c2ncc3c(N4CC5CCC(C4)N5)nc(OCC4(CN5CCC6(CC5)CC(N5CCC(c7ccc(NC8CCC(=O)NC8=O)cc7F)CC5)C6)CC4)nc3c2F)c1 (stereo not drawn) [Compound 21a]", "31 to 60%"),
    ("Cn1nc(C2CCC(=O)NC2=O)c2ccc(C3CCN(C4CC5(CCN(CC6(COc7nc(N8CC9CCC(C8)N9)c8cnc(-c9cc(N)cc(Cl)c9C(F)(F)F)c(F)c8n7)CC6)CC5)C4)CC3)cc21 (stereo not drawn) [Compound 17a]", "> 60%"),
    ("C#Cc1c(F)ccc2cc(O)cc(-c3ncc4c(N5CC6CCC(C5)N6)nc(OCC5(CN6CCC7(CC6)CC(N6CCC(c8ccc(NC9%10CC(C9)C(=O)NC%10=O)cc8F)CC6)C7)CC5)nc4c3F)c12 [Compound 36a]", "> 60%"),
    ("C#Cc1c(F)ccc2cc(O)cc(-c3ncc4c(N5CC6CCC(C5)N6)nc(OCC5(CN6CCC7(CC6)CC(N6CCC(c8ccc(CN9CCC(=O)NC9=O)cc8)CC6)C7)CC5)nc4c3F)c12 [Compound 38a]", "11 to 30%"),
    ("C#Cc1c(F)ccc2cc(O)cc(-c3ccc4c(N5CC6CCC(C5)N6)nc(OCC5(CN6CCC7(CC6)CC(N6CCC(c8ccc9c(C%10CCC(=O)NC%10=O)nn(C)c9c8)CC6)C7)CC5)nc4c3F)c12 (stereo not drawn) [Compound 23a]", "> 60%"),
    ("C#Cc1c(F)ccc2cc(O)cc(-c3ncc4c(N5CC6CCC(C5)N6)nc(OCC5(CN6CC7(CCC(CN8CCC(c9ccc%10c(C%11CCC(=O)NC%11=O)nn(C)c%10c9)CC8)CC7)C6)CC5)nc4c3F)c12 (stereo not drawn) [Compound 32a]", "> 60%"),
    ("C#Cc1c(F)ccc2cc(O)cc(-c3ncc4c(N5CC6CCC(C5)N6)nc(OCC5(CN6CCC7(CC6)CC(c6cc8c(cc6F)c(N6CCC(=O)NC6=O)nn8C)C7)CC5)nc4c3F)c12 [Compound 39a]", "> 60%"),
    ("Cn1nc(N2CCC(=O)NC2=O)c2cc(F)c(C3CCN(C4CC5(CCN(CC6(COc7nc(N8CC9CCC(C8)N9)c8cc(Cl)c(-c9ccc(F)c%10sc(N)c(C#N)c9%10)c(F)c8n7)CC6)CC5)C4)CC3)cc21 [Compound 40a]", "> 60%"),
    ("C#Cc1c(F)ccc2cccc(-c3ncc4c(N5CC6CCC(C5)N6)nc(OCC5(CN6CCC7(CC6)CC(N6CCC(c8ccc(NC9CCC(=O)NC9=O)cc8F)CC6)C7)CC5)nc4c3F)c12 (stereo not drawn) [Compound 22a]", "11 to 30%"),
]
